- Experiment: physchem;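 further: distribution coefficient quantified using high-throughput LC-MS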
- Measurement context: octanol/water
Parameter measured: logD

[
  {
    "Smi": "CC(=O)c1ccc(Oc2ccc3nc(C(=O)N4CCNCC4)ccc3c2)cc1",
    "Reported measurement": 3.1
  },
  {
    "Smi": "N#Cc1ccc(Oc2ccc3nc(OCC(=O)N4CCOCC4)ccc3c2)cc1",
    "Reported measurement": 3.4
  },
  {
    "Smi": "N#Cc1ccc(COc2ccc3nc(C(=O)N4CCNCC4)ccc3c2)cc1",
    "Reported measurement": 2.9
  },
  {
    "Smi": "N#Cc1ccc(Oc2ccc3nc(C(=O)N4CCNCC4)ccc3c2)cc1",
    "Reported measurement": 2.6
  }
]

I = O=C(c1ccc2cc(Oc3cnc(C(F)(F)F)cn3)ccc2n1)N1CCNCC1
II = O=C(c1ccc2cc(Oc3ccc(C(F)(F)F)cc3)ccc2n1)N1CCNCC1
I or II : whose logD is greater? State the label of the item chosen.
II
